# target-or-test-system: purified recombinant rat FAAH (Rattus norvegicus, UniProt P97612)
# Construct: made in house; host or cells: E. coli
# Sequence (P97612 1-579): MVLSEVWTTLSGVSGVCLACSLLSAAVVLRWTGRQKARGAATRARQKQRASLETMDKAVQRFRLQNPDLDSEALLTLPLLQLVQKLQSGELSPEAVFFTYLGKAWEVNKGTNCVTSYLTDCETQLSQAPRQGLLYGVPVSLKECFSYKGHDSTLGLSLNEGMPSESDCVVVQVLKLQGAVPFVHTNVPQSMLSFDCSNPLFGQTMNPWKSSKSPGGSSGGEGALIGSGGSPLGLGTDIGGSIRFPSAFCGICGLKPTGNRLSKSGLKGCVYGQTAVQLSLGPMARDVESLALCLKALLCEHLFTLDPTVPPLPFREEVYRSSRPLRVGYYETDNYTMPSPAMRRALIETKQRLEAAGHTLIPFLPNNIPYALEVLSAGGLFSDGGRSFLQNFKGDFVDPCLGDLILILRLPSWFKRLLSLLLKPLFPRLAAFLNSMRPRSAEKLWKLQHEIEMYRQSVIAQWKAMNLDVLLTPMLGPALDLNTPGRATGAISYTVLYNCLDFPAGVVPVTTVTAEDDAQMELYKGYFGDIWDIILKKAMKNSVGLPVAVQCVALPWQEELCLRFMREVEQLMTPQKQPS
# assay-protocol: FAAH enzyme assay, Ki (Dixon plot), rat FAAH
# Assay type: biochemical
# assay-context: pH 9
parameter: Ki (nM)

compound-smiles: O=C(O)c1ccc(-c2cnc(C(=O)CCc3ccc(-c4ccccc4)cc3)o2)nc1
target-or-test-system: purified recombinant rat FAAH (Rattus norvegicus, UniProt P97612)
measurement-units: nM
assay-result: 14

###

List of pKi values.
# target-or-test-system: FAAH (Homo sapiens)
# Sequence (O00519 whole entry): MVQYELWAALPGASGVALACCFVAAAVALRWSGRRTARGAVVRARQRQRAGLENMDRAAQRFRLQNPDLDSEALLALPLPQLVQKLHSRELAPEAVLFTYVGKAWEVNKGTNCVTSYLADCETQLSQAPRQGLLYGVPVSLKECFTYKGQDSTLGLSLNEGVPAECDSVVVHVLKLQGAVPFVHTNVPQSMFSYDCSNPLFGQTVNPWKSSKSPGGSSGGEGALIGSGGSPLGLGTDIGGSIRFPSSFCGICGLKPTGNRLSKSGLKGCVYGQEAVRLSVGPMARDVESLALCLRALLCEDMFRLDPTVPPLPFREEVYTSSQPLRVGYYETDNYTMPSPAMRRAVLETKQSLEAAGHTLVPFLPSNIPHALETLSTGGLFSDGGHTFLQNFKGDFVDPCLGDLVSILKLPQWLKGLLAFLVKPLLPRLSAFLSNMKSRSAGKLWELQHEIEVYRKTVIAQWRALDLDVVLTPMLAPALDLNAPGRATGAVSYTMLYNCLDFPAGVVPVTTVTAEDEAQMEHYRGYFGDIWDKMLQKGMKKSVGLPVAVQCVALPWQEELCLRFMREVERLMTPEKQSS
pKi: −log10 of the molar value.

molecule: O=C(CCc1ccc(COc2ccccc2)cc1)c1ncc(-c2ccccn2)o1 [Example 11e]
target-or-test-system: FAAH (Homo sapiens)
pKi: 8.30

molecule: O=C(CCc1ccc(OCc2ccccc2)cc1)c1ncc(-c2ccccn2)o1 [Example 11a]
target-or-test-system: FAAH (Homo sapiens)
pKi: 9.35

molecule: O=C(CCc1ccc(OCc2ccccc2)cc1)c1nc2ncccc2o1 [Example 11k]
target-or-test-system: FAAH (Homo sapiens)
pKi: 9.22

###

# target-or-test-system: purified recombinant rat FAAH (Rattus norvegicus, UniProt P97612)
# Construct: made in house; host or cells: E. coli
# assay-protocol: FAAH enzyme assay, Ki (Dixon plot), rat FAAH
# Format: biochemical
# assay-context: purified recombinant rat FAAH expressed in E. coli; 14C-oleamide hydrolysis; pH 9.0; 20-23° C.
pKi: −log10 of the molar value.
Cut-off 8 on pKi, inclusive. At or above means satisfied; below means not satisfied.

molecule: COC(=O)c1cccc(-c2cnc(C(=O)CCc3ccc(-c4ccc(CN5CCOCC5)cc4)cc3)o2)n1
label: not satisfied
--
molecule: O=C(O)c1ccc(-c2cnc(C(=O)CCc3ccc(COc4ccccc4)cc3)o2)nc1
label: satisfied
--
molecule: O=C(COc1ccc(OCc2ccccc2)cc1)c1ncc(-c2ccccn2)o1 [Example 11b]
label: not satisfied
--
molecule: CN1CCN(Cc2ccc(-c3ccc(CCC(=O)c4ncc(-c5cccc(C(=O)O)n5)o4)cc3)cc2)CC1
label: not satisfied
--
molecule: O=C(CCc1ccc(Nc2ccccc2)cc1)c1ncc(-c2ccccn2)o1 [Example 11g]
label: satisfied
--
molecule: O=C(O)c1ccc(-c2cnc(C(=O)CCc3ccc(-c4ccccc4)cc3)o2)cn1
label: not satisfied
--
molecule: O=C(CCc1ccc(COc2ccccc2)cc1)c1ncc(-c2cccc(-c3nnn[nH]3)n2)o1
label: not satisfied
--
molecule: O=C(O)c1cccc(-c2cnc(C(=O)CCc3ccc(Oc4ccccc4)cc3)o2)n1
label: not satisfied
